System: K562 (chronic myelogenous leukaemia)
method: Effect of compounds on tumor cell lines (assay of Latham et al.), K562
Type: cell-based
condition: K562 cells, 96 hours after treatment, 1 μM to 100 μM; read-out: K 562 potency (IC50)
pIC50: −log10 of the molar value.
test.readout: pIC50

Completed entries (count: 8):
# molecule, pIC50
rows = [
    ("O=C(C(=Cc1ccccc1OCc1ccccc1)SCc1ccc(F)cc1)c1ccc(Br)cc1 [Example 236]", "5.00 to 6.00"),
    ("O=C(C(=Cc1ccc(O)cc1)SCc1ccc(Cl)cc1)c1ccc(Cl)cc1 [Example 222]", "5.00 to 6.00"),
    ("O=C(C(=Cc1ccc(Cl)cc1Cl)SCc1ccc(Cl)cc1)c1ccc(Cl)cc1 [Example 195]", "4.30 to 4.60"),
    ("COc1ccccc1C=C(SCc1ccc(C)cc1)C(=O)c1ccc(Cl)cc1 [Example 279]", "4.60 to 5.00"),
    ("O=C(C(=Cc1ccc(O)c([N+](=O)[O-])c1)SCc1ccc(Cl)cc1)c1ccc(Cl)cc1 [Example 220]", "4.60 to 5.00"),
    ("O=C(/C(=C\\c1ccc(O)c([N+](=O)[O-])c1)SCc1ccc(Br)cc1)c1cc(Cl)ccc1O [Example 187]", "4.60 to 5.00"),
    ("O=C(C(=Cc1ccc(N2CCN(CCO)CC2)c([N+](=O)[O-])c1)SCc1ccc(F)cc1)c1ccc(F)cc1 [Example 330]", "≥ 6.00"),
    ("CCOC(=O)c1c(C)[nH]c(C=C(SCc2ccc(Br)cc2)C(=O)c2ccc(SCc3ccc(Br)cc3)c([N+](=O)[O-])c2)c1C [Example 309]", "< 4.00"),
]

Shifting focus to the molecule that follows.
What does the data say about its pIC50? Entry: O=C(C(=Cc1ccc(Cl)cc1)SCc1ccc(Cl)cc1Cl)c1ccc(Cl)cc1 [Example 122]
5.00 to 6.00
